- measured target: T1, recombinant human 4R0N tau (human, UniProt P10636 2-758)
- T1 construct: also called recombinant 4R0N human tau; P10636-6
- T1 sequence (P10636 other isoform, or with tags, fused parts or gaps limits assumed): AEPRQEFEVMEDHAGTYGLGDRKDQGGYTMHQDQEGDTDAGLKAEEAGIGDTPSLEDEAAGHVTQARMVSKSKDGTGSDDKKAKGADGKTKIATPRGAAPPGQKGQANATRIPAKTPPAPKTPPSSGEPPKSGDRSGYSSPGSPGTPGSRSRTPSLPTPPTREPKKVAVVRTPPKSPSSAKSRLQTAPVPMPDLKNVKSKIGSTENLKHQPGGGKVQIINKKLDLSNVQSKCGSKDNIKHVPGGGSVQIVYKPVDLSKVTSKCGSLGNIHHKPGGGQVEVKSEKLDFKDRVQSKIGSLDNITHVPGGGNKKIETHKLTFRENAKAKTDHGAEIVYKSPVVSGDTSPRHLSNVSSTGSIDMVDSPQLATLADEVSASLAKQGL
- method: SPR Biacore; antibody captured by anti-mouse antibody; tau as analyte; global 1:1 fit
- Protocol: Surface plasmon resonance (SPR) analysis using Biacore was performed by immobilizing an anti-mouse (GE Lifesciences) antibody to a CM3 chip with EDC/NHS. Antibodies were then captured to the anti-mouse surface to equivalent levels. Regeneration was performed with 2 30 s injections of 10 mM Glycine pH 1.7. […] Data was then analyzed with onboard evaluation software using a global 1:1 fit.
Each entry below carries its recorded pKd.
Scale for pKd: -log10 of concentration given in mol/L; no unit attached.

Solved entries (count: 5):
mouse 12C4 antibody (antibody, mouse IgG2a, V domains shown, also called m12C4) VH: EVQLQQSGAELVRPGASVKLSCTASGFNIKDDYMNWVRQRPERGLEWIGWIDPENGDTAYASKFQGKATMTADTSSNTAYLQFSSLTSEDSAVYYCTTSNGWGQGTLVTVSA VL: DIVMTQAAFSNPVTLGTSASISCRSSKSLLHSNGITYLYWYLQKPGQSPQLLIYQMSNLASGVPDRFSSSGSGTDFTLRISRVEAEDVGVYYCAQNLELPLTFGAGTKLELK    9.44
mouse 10C12 antibody (antibody, mouse IgG2a, V domains shown, also called m10C12) VH: EVQLQQSGAELVRPGASVKLSCTASGFNIKDDYMNWVKQRPERGLEWIGWIDPENGDTEYASKFQGKATMTADTSSNTAYLQFSSLTSEDTAVYYCTTSNGWGQGTLVTVST VL: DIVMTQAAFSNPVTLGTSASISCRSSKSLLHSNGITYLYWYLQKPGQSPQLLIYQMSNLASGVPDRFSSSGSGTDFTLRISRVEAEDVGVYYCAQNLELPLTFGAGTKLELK    9.43
mouse 9F5 antibody (antibody, mouse IgG1, V domains shown, also called m9F5; murine 9F5) VH: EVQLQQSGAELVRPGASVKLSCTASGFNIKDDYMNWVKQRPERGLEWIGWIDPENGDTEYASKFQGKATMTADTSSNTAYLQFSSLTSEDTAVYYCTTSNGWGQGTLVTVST VL: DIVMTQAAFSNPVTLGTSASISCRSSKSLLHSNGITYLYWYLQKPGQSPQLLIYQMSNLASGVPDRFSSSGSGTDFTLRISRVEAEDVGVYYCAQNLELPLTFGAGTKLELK    9.46
mouse 14H3 antibody (antibody, mouse IgG2a, V domains shown, also called m14H3) VH: QVTLKESGPGILQPSQTLSLTCSFSGFSLSTYGMGVGWIRQPSGKGLEWLANIWWDDIKYYNAALKSRLTISKDTSKNQVFLKIASVDTADTATYYCARNVDYWGQGTTLTVSS VL: DVVMTQTPLSLPVSLGDQASISCRSSQSLVHSNGNTFLHWYLQKPGQSPKLLIYKVSNRFSGVPDRFSGSGSGTDFTLKISRVEAEDLGVYFCSQSTLVPWTFGGGTKLEIK    9.69
mouse 17C12 antibody (antibody, mouse IgG2a, V domains shown, also called m17C12) VH: KIQLQQSGAELVRPGASVKLSCTASAFNIKDDYMNWVKQRPERGLEWIGWIDPENGDTKYASKFQGKATMTADTSSNTAYLQLSSLTSEDTAVYYCTTSNGWGQGTLVTVSA VL: DVVMTQTPLTLSVTIGQPASISCTSSQSLLHSNRKTYLHWLLQRPGQSPKLLIYLVSKLESGVPDRFSGSGSGTDFTLKISRVEAEDLGVYYCLQTTHFPRTFGGGTKLEIK    9.32

We now examine a further binder.
Briefly, pKd measured for mouse 2D11 antibody (antibody, mouse IgG2a, V domains shown) VH: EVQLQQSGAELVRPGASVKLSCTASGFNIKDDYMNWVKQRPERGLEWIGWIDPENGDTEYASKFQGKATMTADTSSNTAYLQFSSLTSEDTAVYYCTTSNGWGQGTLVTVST VL: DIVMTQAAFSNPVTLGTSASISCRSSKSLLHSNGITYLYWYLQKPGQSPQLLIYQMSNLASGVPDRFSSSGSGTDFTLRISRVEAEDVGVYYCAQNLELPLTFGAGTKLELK : 9.50
